Task for the reader: assign each of the following compounds its reported composite z-score.
TGT: Neurogenic locus notch homolog protein 2 (Homo sapiens)
ASSAY_NAME: Notch2 binders on small-molecule microarrays, primary screen, biochemical, small-molecule microarray, 635 nm fluorescence, stem cell growth factors (AID 1073)
RUN_PARAMETERS: Notch2 binding, higher = more signal

Input: Query: composite z-score; subject: O=C(CS)NCCCCCCNC(=O)[C@H]1C[C@H]2C(=O)N[C@@H](Cc3ccccc3)C(=O)N2[C@H]1c1cccc(OCCO)c1
Output: 1.56

Input: Query: composite z-score; subject: O=C1O[C@@H](c2ccccc2)[C@@H](c2ccccc2)N2[C@@H](c3ccccc3OCCO)[C@]3(C(=O)Nc4ccccc43)[C@@H](C(=O)NC[C@H](O)c3ccccc3)[C@H]12
Output: -0.843

Input: Query: composite z-score; subject: NC(=O)N1C(=O)C2C(C1=O)C1C=C(c3ccc(CO)cc3)C2C(C2CC2)N1Cc1sc2ccccc2c1Cl (stereo not given)
Output: 1.19

Input: Query: composite z-score; subject: CCOC(=O)C1=CC[C@@H](c2ccccc2C(F)(F)F)N(S(=O)(=O)c2ccc(C)cc2)C1
Output: 1.67

Input: Query: composite z-score; subject: COC(=O)[C@]1(CCS(=O)(=O)c2ccccc2)N=C(c2ccc(OCCCO)cc2)O[C@@H]1c1ccccc1CN=[N+]=[N-]
Output: 1.12

Input: Query: composite z-score; subject: C=C(C(=O)CC[C@H](OC(=O)c1cccnc1)c1ccc(CO)o1)C(C)C
Output: 0.355

Input: Query: composite z-score; subject: COCCCNC(=O)[C@]1(Cc2ccccc2CN=[N+]=[N-])N=C(c2ccc(OCCCO)cc2)O[C@@H]1c1ccccc1
Output: 1.09

Input: Query: composite z-score; subject: C=CCOC(=O)[C@@H]1[C@H]2C(=O)O[C@H](c3ccccc3)[C@H](c3ccccc3)N2[C@H](c2ccc(OCCOC(=O)[C@H]3C[C@H]4C(=O)N[C@@H](CCCC[N+](C)(C)C)C(=O)N4[C@H]3c3ccc(O)cc3)cc2)[C@@]12C(=O)Nc1ccc(I)cc12
Output: 1.18

Input: Query: composite z-score; subject: C=C(C(=O)CC[C@H](OC(=O)c1cccnc1)c1cccc(OCCO)c1)C(C)C
Output: -1.26

Input: Query: composite z-score; subject: C=C(CCCC)/C(=C/C[C@@H](OC(C)=O)c1ccc(CO)o1)c1cc(C(=O)OC)ccc1OC
Output: 0.621
